Each record here notes measured total protein half-life in vivo.
experiment summary: total protein half-life in vivo (active degradation + dilution); higher = more stable protein
study conditions: E. coli NCM3722 delta-hslV; growth: N-lim chemostat; doubling time 6 h
reported property: total protein half-life in vivo (h)

INSERT INTO results (primary_sequence, limit_operator, value_observed) VALUES
  ('MQAEILLTLKLQQKLFADPRRISLLKHIALSGSISQGAKDAGISYKSAWDAINEMNQLSEHILVERATGGKGGGGAVLTRYGQRLIQLYDLLAQIQQKAFDVLSDDDALPLNSLLAAISRFSLQTSARNQWFGTITARDHDDVQQHVDVLLADGKTRLKVAITAQSGARLGLDEGKEVLILLKAPWVGITQDEAVAQNADNQLPGIISHIERGAEQCEVLMALPDGQTLCATVPVNEATSLQQGQNVTAYFNADSVIIATLC [P0A9G8]', '=', 6.82),
  ('MSNTYQKRKASKEYGLYNQCKKLNDDELFRLLDDHNSLKRISSARVLQLRGGQDAVRLAIEFCSDKNYIRRDIGAFILGQIKICKKCEDNVFNILNNMALNDKSACVRATAIESTAQRCKKNPIYSPKIVEQSQITAFDKSTNVRRATAFAISVINDKATIPLLINLLKDPNGDVRNWAAFAININKYDNSDIRDCFVEMLQDKNEEVRIEAIIGLSYRKDKRVLSVLCDELKKNTVYDDIIEAAGELGDKTLLPVLDTMLYKFDDNEIITSAIDKLKRS [P0ADK6]', '=', 2.92),
  ('MSEVEFSHEYWMRHALTLAKRAWDEREVPVGAVLVHNNRVIGEGWNRPIGRHDPTAHAEIMALRQGGLVMQNYRLIDATLYVTLEPCVMCAGAMIHSRIGRVVFGARDAKTGAAGSLMDVLHHPGMNHRVEITEGILADECAALLSDFFRMRRQEIKAQKKAQSSTD', '>', 8),
  ('MGNRTKEDELYREMCRVVGKVVLEMRDLGQEPKHIVIAGVLRTALANKRIQRSELEKQAMETVINALVK [P0ACX5]', '=', 3.93);
